Test system: MS2 coat protein
TEST_DESCRIPTION: apparent KD of MS2 coat protein, switch OFF state (with FMN for OFF switches, without FMN for ON switches); designed switch direction (-1 OFF switch, 1 ON switch): 1; higher = weaker reporter binding
EXPERIMENTAL_PARAMETERS: FMN input: 0 or 200 uM; Eterna round: R93 (includes R88 designs)
RESULT_TYPE: apparent KD of MS2 coat protein (nM)
Numeric answer only, unit nM assumed.

Sample records with apparent KD of MS2 coat protein:
{"RECORD_SEQUENCE": "AAAACACAUGAGGAUCACCCAUGUAAAAACAUGAGAGGAUAUGCAUGAAAAACAUGCUAUGCAGAAGGCUCAUGUG [SS1 - 1]", "apparent KD of MS2 coat protein (nM)": 27.2}
{"RECORD_SEQUENCE": "AAGAAACAUGAGGAUCACCCAUGUGGAAAUAUGGGAGGAUAUACAAGGACGUAAGUCAAGGUAGAAGGCCUAAGAA [Mat - Same State 1 - Meechl mod - D138]", "apparent KD of MS2 coat protein (nM)": 134}

With those in mind, consider the next sequence.
Give recorded apparent KD of MS2 coat protein. AAAAAACAUGAGGAUCACCCAUGUAAAAAUAUGGGAGGAUAUUCAAACACGAAAGUGAAAGAAGAAGGCCUAAAAA [SS! MT 18]
139

---

apparent KD of K4 kissing-loop reporter values for the sequences below.
Tested on: K4 kissing-loop RNA reporter
TEST_DESCRIPTION: apparent KD of K4 kissing-loop reporter; higher = weaker reporter binding
EXPERIMENTAL_PARAMETERS: Eterna round: R107; input ligand: tryptophan 2.4 mM
Numeric answer only, unit nM assumed.

Sample records with apparent KD of K4 kissing-loop reporter:
{"RECORD_SEQUENCE": "GCAGUGAUGUUGCACGAGUAGGCUGGAGUACGAGGACCGGUACGGCCGCCACUCGUACGAUAGUCGCUAAUUUAUGGAAUGGUGA [#08 K4 Tryptophan A Same State]", "apparent KD of K4 kissing-loop reporter (nM)": 419}
{"RECORD_SEQUENCE": "AAUAAGGUCGCCGAUACCAGCGCGGGCAGAGCAAAGCUCUGCCCGGCAGUGAUGUUGCCGCGCCCUUGGCAGCGGUGGCACGACC [Omei KL Theo B SS C v7]", "apparent KD of K4 kissing-loop reporter (nM)": 55.8}

With those in mind, consider the next sequence.
Give recorded apparent KD of K4 kissing-loop reporter. CUUGGAAGGACGGCCGCCACUGGGCAGUGAUGUUGCCCGAGUUGGUAACGCAGUGAUGUUGCGUCCAGGACCGGGUCCUAGGAAU [Exclusion Tryptophan B GF 25]
139

---

apparent KD of K4 kissing-loop reporter values for the sequences below.
Tested on: K4 kissing-loop RNA reporter;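 also: bound reporter read as fluorescence of individual clusters on recovered sequencing chips by microscopy, with normalized cluster intensities fitted with a binding model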
TEST_DESCRIPTION: apparent KD of K4 kissing-loop reporter; higher = weaker reporter binding
EXPERIMENTAL_PARAMETERS: Eterna round: R107; input ligand: none
Numeric answer only, unit nM assumed.

{"RECORD_SEQUENCE": "UUGACCUACUCAGGAUAUCCGCAGUGAUGUUGCGGUUGGCCUGAGCGGCAUGAAAAUCUUACUACAGGAGAAGGGAGAGGGUUAC [Atusgeis]", "apparent KD of K4 kissing-loop reporter / nM": 82.6}
{"RECORD_SEQUENCE": "UGACAUUGCUCAGAUACCAGACUUGAGGAUCACCCAAGUGCCAAAACGUACUAAAUAAAAGUCCCUUGGCAGCUGAGCAAUGUCU [TheoBX 13]", "apparent KD of K4 kissing-loop reporter / nM": 40.6}
{"RECORD_SEQUENCE": "AUAGUGAGCUCGGCCGCCACUCCACUAUGUCAACAGUAGCUCUGUCAUAACCAGUGAUGUUGGUUGAGGACCGGGAGUUAAGACU [theeternabot_exclusion_KL_Trp_B_34]", "apparent KD of K4 kissing-loop reporter / nM": 198}

Give recorded apparent KD of K4 kissing-loop reporter. AAGUGAUGUUGUAGUGAUGUUGUGAUGUUGCAGGAUAUAUAGUGAUGUAGAAGGGUAUGUGCAGUGUUCUUAUUUGAGUGUUGAU [zffdmullin]
64.7

Give recorded apparent KD of K4 kissing-loop reporter. UGCUUUAUCAGAAGGAGCGCGUAAGUUAUACUAAUAAUCAGUGAUGUUGAUAUAUGAUCUUUGCAGGUAGGUCGCUGAUAUAGCU [KL-XARG-B4]
532

Give recorded apparent KD of K4 kissing-loop reporter. AGCGCUGCCUGAGGAUAUAGAGACGAGUGAUGUUCGUGGAUUGAUACCAGUGAUGUUGGUCUAUUUCUAGAAGGCAGGCGAUCGU [Exclusion FMN B GF 3]
103

---

System: MS2 coat protein
TEST_DESCRIPTION: apparent KD of MS2 coat protein; designed switch direction (-1 OFF switch, 1 ON switch): -1; higher = weaker reporter binding
EXPERIMENTAL_PARAMETERS: input ligand: microRNA oligo, concentration not stated
Measured apparent KD of MS2 coat protein determines class: low bracket = under 20 nM, middle bracket = from 20 nM up to 80 nM, high bracket = 80 nM and over

Reference set (2 entries):
{"RECORD_SEQUENCE": "ACAAAGGACAUGAGGAUCACCCAUGUGGUGCACAAGUCCAGCAAGGAUAUCCAAGUCCCAUAAACGGAGAAGGUGCAUAAUAAG [Inesxeed] (Eterna round: R96, puzzle: Exclusion NG 3)", "ASSIGNED_LABEL": "high bracket"}
{"RECORD_SEQUENCE": "GGUGGCUACGUGAGACAUGAGGAUCACCCAUGUUACCGAACGAAGGAUAUAGAAGCACAUAGCUACUAGAAGGUUGAAAAGAAA [Laeratveti] (Eterna round: R96, puzzle: Exclusion NG 3)", "ASSIGNED_LABEL": "middle bracket"}

Into which category would you place UUUUGUUUGCGAGGAUAUGCUUUUAGUAAGUUAGCAGAAGGCGCGUUACAUAGAACCUCUUGUUACAUGAGGAUCACCCAUGUU [JR_ExcNG1_Sub036] (Eterna round: R96, puzzle: Exclusion NG 1) ?
high bracket

Into which category would you place UUGUUGUAUGUAGGAUAUGCAUAUUGUUAUUAUGCAGAAGGACAUGAGGAUCACCCAUGUAUAUUAUUAUUAUAUGUUAUAUAU [Title] (Eterna round: R96, puzzle: Exclusion NG 1) ?
low bracket

---

apparent KD of MS2 coat protein values for the sequences below.
System: MS2 coat protein
TEST_DESCRIPTION: apparent KD of MS2 coat protein; designed switch direction (-1 OFF switch, 1 ON switch): 1; higher = weaker reporter binding
EXPERIMENTAL_PARAMETERS: input ligand: FMN 200 uM
Numeric answer only, unit nM assumed.

Sample records with apparent KD of MS2 coat protein:
{"RECORD_SEQUENCE": "GGAAUGUGAUGUUACAUGAGGAUCACCCAUGUAGUGACAACUAAGGAUAUCUGAAAAGAAGGAGAGGAGAAGGUAGGAUCACAA [AK SSNG3-V2-15] (Eterna round: R96, puzzle: Same State NG 3)", "RESULT_NUMBER": 30.8}
{"RECORD_SEQUENCE": "CGCCAGAGAGCAGGAUAUGGGCCACGGCCUAAGGGCUGUGAACUCACAUGAGGAUCACCCAUGUCCCAGAAGGGCUCCUGGCGG [Veatzain] (Eterna round: R96, puzzle: Same State NG 2)", "RESULT_NUMBER": 62.4}
{"RECORD_SEQUENCE": "GCUACCAUUGAAGCCAACAUGAGGAUCACCCAUGUAUGUUGGUAGGAUAUCGUUUGCUUUGCAAACGAGAAGGGCUAAGGUAGC [JL SSNG3 1.27] (Eterna round: R96, puzzle: Same State NG 3)", "RESULT_NUMBER": 72.2}
{"RECORD_SEQUENCE": "UGUACCUUCACAGGAUAUCAUGCGAAAAUUGCGUGAGAAGGGUGAAUACGGUGUUAAUAAAAGCACAUGAGGAUCACCCAUGUA [SameState NG1 #56] (Eterna round: R96, puzzle: Same State NG 1)", "RESULT_NUMBER": 303}
{"RECORD_SEQUENCE": "CGUCGUUUGAUAGGAUAUCGCUUUACAUGAGGAUCACCCAUGUUUACCACGCUGGUUUUUCUUUCCGAGAAGGAUUCUGAUGUU [salish99_SSNG02_r04_023] (Eterna round: R96, puzzle: Same State NG 2)", "RESULT_NUMBER": 35.7}
{"RECORD_SEQUENCE": "ACAUGAGACUCAGGAUAUCUUGUACCUACAUGUGACAUGAGGAUCACCCAUGUGGUAAGUAUGACAGAGAAGGGAGAGAUAUGU [Equivalance 87 - Jieux - Same State NG 2] (Eterna round: R96, puzzle: Same State NG 2)", "RESULT_NUMBER": 26.7}

Give recorded apparent KD of MS2 coat protein. UGGAGAAGUCAAGGAUAUGCUACCGUUUCGGUAGCAGAAGGUGAUCACAUGAGGAUCACCCAUGUAUGCAUGCGUGAGCGUGCU [JL SSNG1 3.55] (Eterna round: R96, puzzle: Same State NG 1)
337

Give recorded apparent KD of MS2 coat protein. CUUCGCGCCGCAGGAUAUGCCGACCCGUGUUGAGCAGAAGGGCGAGACAUGAGGAUCACCCAUGUCUAAAGAGCGCAUCAAUAA [Esedlaedbi] (Eterna round: R96, puzzle: Same State NG 1)
23.1

Give recorded apparent KD of MS2 coat protein. AUGAAGAAUUAAGGAUAUUGAAUACAUAUGUUUAACAUGAGGAUCACCCAUGUGGGUUGCGGUAUCGAGAAGGUAAAAUAAUAG [Mat - same State NG 2 - JL mod - D91] (Eterna round: R96, puzzle: Same State NG 2)
162

Give recorded apparent KD of MS2 coat protein. UUAAUAAAUCAAGGAUAUCACGUCGAUUAGACGUGAGAAGGUGAUCAUAACAUGAGGAUCACCCAUGUAUUACAUGAAUAUUAA [SSNG1/1-B2] (Eterna round: R96, puzzle: Same State NG 1)
1810

Give recorded apparent KD of MS2 coat protein. GGUAAGAAUUAAGGAUAUUGAAUACAUAUGUUUAACAUGAGGAUCACCCAUGUGGGUUGCGGUGUCGAGAAGGUAAAAUAAUAG [Mat - same State NG 2 - JL mod - D101] (Eterna round: R96, puzzle: Same State NG 2)
269

Give recorded apparent KD of MS2 coat protein. GGCCUGAGUGAAGGAUAUGCUACCGUUUCGGUAGCAGAAGGUCAUCACAUGAGGAUGACCCAUGUUUACGCGAACACGCGCGCC (Eterna round: R96, puzzle: Same State NG 1)
45.9

Give recorded apparent KD of MS2 coat protein. GCGUGAGAGAUAGGAUAUCGUGUACCUACAUGUGACAUGAGGAUCACCCAUGUGGUAAGUAUGAGCGAGAAGGAUCCGAUAUGU [salish99_SSNG2_r04_1003] (Eterna round: R96, puzzle: Same State NG 2)
28.2

Give recorded apparent KD of MS2 coat protein. UUUAGUUGCGGGCAGGAUAUGUGUUAAAAUACAUGAGGAUCACCCAUGUGCGGGUAUAACACCCGACAGAAGGGCCAAUCGCGAC [Laonerce - 2] (Eterna round: R96, puzzle: Same State 2)
13.5

Give recorded apparent KD of MS2 coat protein. UAGUUUCAACGAGGAUAUAAUAGGUUCUAUUCGUGAUAUUGCGUACAUGAGGAUCACCCAUGUUAUUAGAAGGCGUAUGGGUUU [JR_SSNG2_Sub086] (Eterna round: R96, puzzle: Same State NG 2)
89.9

Give recorded apparent KD of MS2 coat protein. CGCCAGAGAGCAGGAUAUGGGCCACGGCCUAAGGGCUGUGAACUCACAUGAGGAUCACCCAUGUCCCAGAAGGGCUCCUGGCUA [Temabeanan] (Eterna round: R96, puzzle: Same State NG 2)
112

Give recorded apparent KD of MS2 coat protein. AAUUAAGAUUAAGGAUAUCACGUCGUUUAGACGUGAGAAGGUGAUCAUAACAUGAGGAUCACCCAUGUAUUACAUGAAUUAAUU [SSNG1/3-B3] (Eterna round: R96, puzzle: Same State NG 1)
1040

Give recorded apparent KD of MS2 coat protein. GGAGCCAAGGCAGGAUAUUCAUAUUAAUAACACAUGAGGAUCACCCAUGUGGCCAGAAGGCCUUGGGAGAAGGGCCAUGGCUCG [Xeonanis - 13 mod9] (Eterna round: R96, puzzle: Same State NG 2)
28
